Quick list: % reduction of number of ticks per entry.
tested on: Rhipicephalus sanguineus nymphs; test: In-vivo test against Rhipicephalus sanguineus nymphs on Mongolian gerbils; details: dose 10 mg/kg, spray (or spot-on) on gerbils; vs placebo group, Abbot's formula
Property name: % reduction of number of ticks (%)

In [3]: df
Out[3]:
                                   molecule                    system_tested  units_text  value_reported
0  CC(C)c1cccc(-c2nc(Oc3ccc(F)c(C(F)(F)F)c3)c(N)c(Oc3ccc(F)c(C(F)(F)F)c3)n2)c1 [Compound 1.10]  Rhipicephalus sanguineus nymphs           %              81
1  Cc1cc(-c2nc(Oc3ccc(F)c(C(F)(F)F)c3)c(N)c(Oc3ccc(F)c(C(F)(F)F)c3)n2)ccc1F [Compound 1.23]  Rhipicephalus sanguineus nymphs           %              99
2  Cc1cccc(-c2nc(Oc3ccc(F)c(C(F)(F)F)c3)c(N)c(Oc3ccc(F)c(C(F)(F)F)c3)n2)c1 [Compound 1.9]  Rhipicephalus sanguineus nymphs           %              74
3  CC(O)c1cccc(-c2nc(Oc3ccc(F)c(C(F)(F)F)c3)c(N)c(Oc3ccc(F)c(C(F)(F)F)c3)n2)c1 (stereo not shown) [Compound 1.18]  Rhipicephalus sanguineus nymphs           %              85
